# target-desc: human ETB receptor (Homo sapiens, UniProt P24530)
# Construct: expressed in transfected cells; host or cells: COS7 cells
# Sequence (P24530 27-442): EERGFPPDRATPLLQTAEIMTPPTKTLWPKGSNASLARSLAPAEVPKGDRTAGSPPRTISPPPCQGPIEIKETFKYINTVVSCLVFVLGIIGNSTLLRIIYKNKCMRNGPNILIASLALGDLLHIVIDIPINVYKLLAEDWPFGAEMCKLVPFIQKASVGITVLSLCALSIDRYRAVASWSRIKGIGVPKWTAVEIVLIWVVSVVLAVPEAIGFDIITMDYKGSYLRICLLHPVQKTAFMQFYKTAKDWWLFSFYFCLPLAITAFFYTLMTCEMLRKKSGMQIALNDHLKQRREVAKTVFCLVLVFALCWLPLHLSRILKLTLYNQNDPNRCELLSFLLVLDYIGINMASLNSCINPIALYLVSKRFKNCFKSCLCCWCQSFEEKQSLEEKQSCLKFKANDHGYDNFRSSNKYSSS
# method-description: Binding Test #2: inhibition of 125I-ET-1 binding to ETB receptors (transfected COS7 cell membranes)
# condition-label: Table 2; incubation at 4° C.; read-out: ETB
parameter-measured: IC50 (nM)
# output: bare number, implied unit nM

Given the compound Cc1noc(NS(=O)(=O)c2cccc(-c3ccccc3)c2)c1Br , what is its reported IC50?
760

Given the compound CCCCCCCCCCCCCc1c(C(F)(F)F)noc1NS(=O)(=O)c1ccc(-c2ccccc2)cc1 , what is its reported IC50?
990

Given the compound Cc1noc(NS(=O)(=O)c2cccc(-c3ccccc3)c2)c1Cl , what is its reported IC50?
793

Given the compound Cc1noc(NS(=O)(=O)c2ccc(-c3ccccc3)cc2)c1C , what is its reported IC50?
770
